The measured values listed here are drawn from patent US9499553B2.

# measurement_target: human NaPi-IIb (Homo sapiens, UniProt O95436)
# Construct: expressed in transfected cells
# Sequence (O95436 whole entry): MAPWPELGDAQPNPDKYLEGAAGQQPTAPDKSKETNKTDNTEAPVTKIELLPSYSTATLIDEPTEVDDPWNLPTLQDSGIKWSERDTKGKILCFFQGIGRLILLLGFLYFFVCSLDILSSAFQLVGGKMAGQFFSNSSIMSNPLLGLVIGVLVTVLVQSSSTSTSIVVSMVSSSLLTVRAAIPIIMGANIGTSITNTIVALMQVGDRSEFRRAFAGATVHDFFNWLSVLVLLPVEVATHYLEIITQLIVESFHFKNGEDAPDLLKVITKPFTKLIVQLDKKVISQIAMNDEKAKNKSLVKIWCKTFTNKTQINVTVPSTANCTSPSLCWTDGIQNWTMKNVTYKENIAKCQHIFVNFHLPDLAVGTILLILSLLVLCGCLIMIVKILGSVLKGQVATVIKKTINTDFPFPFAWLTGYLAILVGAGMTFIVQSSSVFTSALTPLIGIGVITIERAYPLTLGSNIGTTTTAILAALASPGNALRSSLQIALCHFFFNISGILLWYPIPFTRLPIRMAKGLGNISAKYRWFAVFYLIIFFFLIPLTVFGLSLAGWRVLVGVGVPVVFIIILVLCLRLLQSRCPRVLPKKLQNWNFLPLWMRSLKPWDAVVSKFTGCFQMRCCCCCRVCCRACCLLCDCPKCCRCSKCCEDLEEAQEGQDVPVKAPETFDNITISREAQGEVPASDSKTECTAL
# assay_procedure: Inhibitory effect on 33PO4 uptake into human NaPi-IIb-expressing CHO cells
# Format: cell-based
# condition_summary: read-out: IC50
attribute_measured: IC50 (µM)

Below, 5 compounds whose answers are already recorded.
C[C@]12CCCN1N(Cc1cccc(F)c1F)C(=O)C(C(=O)Nc1ccc(C(F)(F)F)cc1-c1cnc(Cl)c(C#N)c1)=C2O | 2.6
C[C@]12CCCN1N(Cc1cccc(F)c1F)C(=O)C(C(=O)Nc1ccc(C(F)(F)F)cc1-c1cccc(C#N)c1F)=C2O | 14.1
CC(C)(C)[C@H]1C(O)=C(C(=O)Nc2cc(F)c(Br)c(F)c2)C(=O)N(Cc2cccc(F)c2F)N1CC(F)(F)F | 17.6
CCC1(CC)C(O)=C(C(=O)Nc2ccc(C(F)(F)F)cc2-c2ccc(C(F)(F)F)nc2)C(=O)N(Cc2ccc(OCCN3CCOCC3)c(F)c2F)N1C | 10.7
CSc1ccc(-c2cc(C(F)(F)F)ccc2NC(=O)C2=C(O)[C@@]3(C)CCCN3N(Cc3ccc(OCCCCOC[C@H](O)CO)c(F)c3F)C2=O)cn1 | 20.5

P. CN1[C@@H](C(C)(C)C)C(O)=C(C(=O)Nc2ccc(Cl)cc2-c2cc(C#N)ncn2)C(=O)N1Cc1ccc(OCCN2CCOCC2)c(F)c1F
Q. CSc1ccc(-c2cc(C(F)(F)F)ccc2NC(=O)C2=C(O)[C@H](C(C)(C)C)N(C)N(Cc3ccc(OCCN4CCOCC4)c(F)c3F)C2=O)cn1
R. C[C@]12CCCN1N(Cc1cccc(F)c1Cl)C(=O)C(C(=O)Nc1ccc(C(F)(F)F)cc1-c1ccc(C(F)(F)F)nc1)=C2O
S. C[C@]12CCCN1N(Cc1cccc(F)c1Br)C(=O)C(C(=O)Nc1ccc(Br)c(F)c1)=C2O
List items by IC50 in falling order. Give your ranking as a list of the labels in the requested order. P, Q, S, R

a. COCCN(C)CCOc1ccc(CN2C(=O)C(C(=O)Nc3ccc(C(F)(F)F)cc3-c3cc(C(F)(F)F)ncn3)=C(O)C3(CCCC3)N2C)c(F)c1F
b. C[C@]12CCCN1N(Cc1ccc(OCCCOC[C@H](O)CO)c(F)c1F)C(=O)C(C(=O)Nc1ccc(C(F)(F)F)cc1-c1ccc(C(F)(F)F)nc1)=C2O
Please tell me which of the two, a or b , has the higher reported IC50 value. Let me know the label of the one you choose. b

a. C[C@]12CCCN1N(Cc1cccc(F)c1F)C(=O)C(C(=O)Nc1ccc(C(F)(F)F)cc1-c1cncc(C(F)(F)F)c1)=C2O
b. C[C@]12CCCN1N(Cc1cccc(F)c1)C(=O)C(C(=O)Nc1ccc(C(F)(F)F)cc1-c1ccc(C(F)(F)F)nc1)=C2O
Hey, which is lower on measured IC50, a or b ? Let me know the label of the one you choose. b
(b: 2 µM, a: 15.7 µM)

---

# measurement_target: human NaPi-IIb (Homo sapiens, UniProt O95436)
# Construct: expressed in transfected cells
# assay_procedure: Inhibitory effect on 33PO4 uptake into human NaPi-IIb-expressing CHO cells
# Assay type: cell-based
# condition_summary: read-out: IC50
attribute_measured: IC50 (µM)

CN1N(Cc2cccc(F)c2F)C(=O)C(C(=O)Nc2ccc(Cl)cc2-c2cc(C(F)(F)F)ncn2)=C(O)C12CCC2 | 9.8
CSc1ncc(-c2cc(C(F)(F)F)ccc2NC(=O)C2=C(O)[C@@]3(C)CCC(C)(C)N3N(Cc3cccc(F)c3F)C2=O)cn1 | 6.4
CSc1ccc(-c2cc(C(F)(F)F)ccc2NC(=O)C2=C(O)[C@@]3(C)CCCN3N(Cc3ccc(CCCCCCC(=O)O)c(F)c3F)C2=O)cn1 | 6.9
COc1cccc(-c2cc(C(F)(F)F)ccc2NC(=O)C2=C(O)[C@@]3(C)CCCN3N(Cc3ccc(OC[C@H]4CCCO4)c(F)c3F)C2=O)c1OC | 11.4
CCN1[C@@H](C(C)(C)C)C(O)=C(C(=O)Nc2cc(F)c(Br)c(F)c2)C(=O)N1Cc1cccc(F)c1F | 8.6

a. COC(=O)c1cccc(-c2cc(C(F)(F)F)ccc2NC(=O)C2=C(O)[C@@]3(C)CCCN3N(Cc3cccc(F)c3F)C2=O)c1OC
b. C[C@@]12CCCN1N(Cc1ccc(OCCN3CCOCC3)c(F)c1F)C(=O)C(C(=O)Nc1ccc(Cl)cc1-c1cc(C(F)(F)F)ncn1)=C2O
c. COc1cc(-c2cc(C(F)(F)F)ccc2NC(=O)C2=C(O)C(C)(C)N(C)N(Cc3cccc(F)c3F)C2=O)cnc1C#N
List items by IC50 in falling order. Give your ranking as a list of the labels in the requested order. b, a, c
(b: 25.9 µM, a: 16.2 µM, c: 7.8 µM)

A. CN1N(Cc2cccc(F)c2F)C(=O)C(C(=O)Nc2ccc(C(F)(F)F)cc2-c2cc(C#N)ncn2)=C(O)C1(C)C
B. C[C@@]12CCCN1N(Cc1ccc(OCCN3CCOCC3)c(F)c1F)C(=O)C(C(=O)Nc1ccc(C(F)(F)F)cc1-c1cc(C(F)(F)F)ncn1)=C2O
C. CN(C)S(=O)(=O)c1ccc(-c2nc(C(F)(F)F)ccc2NC(=O)C2=C(O)[C@@]3(C)CCCN3N(Cc3cccc(F)c3F)C2=O)cc1
List items by IC50 in falling order. Give your ranking as a list of the labels in the requested order. B, A, C

A. CN1N(Cc2ccc(OCCN3[C@@H]4COC[C@H]3C4)c(F)c2F)C(=O)C(C(=O)Nc2ccc(C(F)(F)F)cc2-c2cc(C(F)(F)F)ncn2)=C(O)C12CCC2
B. C[C@]12CCCN1N(Cc1cccc(F)c1Br)C(=O)C(C(=O)Nc1cccc(Cl)c1F)=C2O
Hey, which is lower on measured IC50, A or B ? Let me know the label of the one you choose. B
(B: 8.3 µM, A: 19.1 µM)

---

# measurement_target: human PiT-1 (Homo sapiens)
# Sequence (Q8WUM9 whole entry): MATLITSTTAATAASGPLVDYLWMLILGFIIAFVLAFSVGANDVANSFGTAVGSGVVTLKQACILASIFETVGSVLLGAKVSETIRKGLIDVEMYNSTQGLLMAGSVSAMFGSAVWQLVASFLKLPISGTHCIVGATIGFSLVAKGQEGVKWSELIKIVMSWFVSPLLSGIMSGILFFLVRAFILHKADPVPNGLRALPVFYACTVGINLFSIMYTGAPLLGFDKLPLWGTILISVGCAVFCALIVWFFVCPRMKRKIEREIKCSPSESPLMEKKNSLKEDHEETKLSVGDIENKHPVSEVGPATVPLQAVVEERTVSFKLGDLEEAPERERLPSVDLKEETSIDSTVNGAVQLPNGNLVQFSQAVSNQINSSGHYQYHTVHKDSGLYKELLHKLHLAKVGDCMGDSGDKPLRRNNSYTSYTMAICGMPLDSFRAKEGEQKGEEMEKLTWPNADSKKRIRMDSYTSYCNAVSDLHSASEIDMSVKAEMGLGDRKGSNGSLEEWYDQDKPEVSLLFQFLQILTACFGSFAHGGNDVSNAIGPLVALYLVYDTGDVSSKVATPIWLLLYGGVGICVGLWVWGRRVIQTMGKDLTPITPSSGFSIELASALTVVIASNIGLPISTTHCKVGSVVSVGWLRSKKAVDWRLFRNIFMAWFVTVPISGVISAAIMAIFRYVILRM
# assay_procedure: Inhibitory effect on 33PO4 uptake into human PiT-1-expressing CHO cells
# condition_summary: compound 0.24, 1.2, 6 or 30 μM, pH 6.5, read-out: IC50 against 33PO4 uptake into human PiT-1-expressing cells
pIC50: −log10 of the molar value.
attribute_measured: pIC50

COCCN(C)CCOc1ccc(CN2C(=O)C(C(=O)Nc3ccc(C(F)(F)F)cc3-c3cc(C(F)(F)F)ncn3)=C(O)C3(CCCC3)N2C)c(F)c1F | 5.66
C[C@]12CCCN1N(Cc1ccc(OCCN3CCOCC3)c(F)c1F)C(=O)C(C(=O)Nc1ccc(C(F)(F)F)cc1-c1cc(C(F)(F)F)ncn1)=C2O | 5.42

A. C[C@]12CCCN1N(Cc1cccc(Cl)c1F)C(=O)C(C(=O)Nc1cc(F)c(Br)c(F)c1)=C2O
B. COCCN(C)CCOc1ccc(CN2C(=O)C(C(=O)Nc3ccc(C(F)(F)F)cc3-c3cc(C(F)(F)F)ncn3)=C(O)C3(CCC3)N2C)c(F)c1F
C. COCCN(C)CCOc1ccc(CN2C(=O)C(C(=O)Nc3ccc(C(F)(F)F)cc3-c3ncnc(C(F)(F)F)c3C)=C(O)C3(CCCC3)N2C)c(F)c1F
// ascending sort on recorded pIC50 Give your ranking as a list of the labels in the requested order. A, B, C
(A: 5.25, B: 5.72, C: 6.05)

a. CN(C[C@H](O)[C@@H](O)[C@H](O)[C@H](O)CO)C(=O)CCCOc1ccc(CN2C(=O)C(C(=O)Nc3ccc(C(F)(F)F)cc3-c3cc(C(F)(F)F)ncn3)=C(O)C3(CCCC3)N2C)c(F)c1F
b. CSc1ccc(-c2cc(Cl)ccc2NC(=O)C2=C(O)[C@H](C(C)(C)C)N(C)N(Cc3ccc(OCCN4CCOCC4)c(F)c3F)C2=O)cn1
Please tell me which of the two, a or b , has the higher reported pIC50 value. Let me know the label of the one you choose. a

---

# measurement_target: human NaPi-IIb (Homo sapiens, UniProt O95436)
# Construct: expressed in transfected cells
# assay_procedure: Inhibitory effect on 33PO4 uptake into human NaPi-IIb-expressing CHO cells
# Type: cell-based
# condition_summary: read-out: IC50
attribute_measured: IC50 (µM)

COc1cccc(-c2cc(C(F)(F)F)ccc2NC(=O)C2=C(O)[C@@]3(C)CCCN3N(Cc3ccc(C#CCOCCCCO)c(F)c3F)C2=O)c1OC | 14.8

a. C[C@]12CCCN1N(Cc1ccc(F)c(F)c1)C(=O)C(C(=O)Nc1ccc(C(F)(F)F)cc1-c1ccc(C(F)(F)F)nc1)=C2O
b. C[C@]12CCCN1N(Cc1cccc(F)c1F)C(=O)C(C(=O)Nc1ccc(C(F)(F)F)cc1)=C2O
c. CC(C)[C@H]1C(O)=C(C(=O)Nc2ccc(C(F)(F)F)cc2-c2ccc(C(F)(F)F)nc2)C(=O)N(Cc2ccc(OCCN3CCOCC3)c(F)c2F)N1C
d. Cc1c(-c2cc(C(F)(F)F)ccc2NC(=O)C2=C(O)C3(CCCC3)N(C)N(Cc3ccc(OCCN4CCOCC4)c(F)c3F)C2=O)ncnc1C(F)(F)F
// ascending sort on recorded IC50 Give your ranking as a list of the labels in the requested order. a, b, d, c
